Measured TGI accompanies every entry in the list below.
- System: 60 different human tumor cell lines
- Test settings: MDA-MB-468 (Breast Cancer), five dose
The answer should be written as a number, with no unit following it.

# example entries with known answers
[[record]]
compound = "C[C@]12CCc3nc(Nc4ccc(O)cc4)sc3C1=CC[C@@H]1[C@@H]2CC[C@]2(C)C(=O)CC[C@@H]12 [IIa.35]"
number = "5.80E−6"

[[record]]
compound = "C[C@]12CCc3sc(Nc4cccc(O)c4)nc3C1=CC[C@@H]1[C@@H]2CC[C@]2(C)C(=O)CC[C@@H]12 [IIa.17]"
number = "1.46E−5"

[[record]]
compound = "C[C@]12CC[C@H]3[C@@H](CC=C4c5sc(-c6ccc(O)cc6)nc5CC[C@@]43C)[C@@H]1CC[C@@H]2O [III.5]"
number = "4.16E−5"

[[record]]
compound = "C[C@]12CCc3sc(NCCc4ccccc4)nc3C1=CC[C@@H]1[C@@H]2CC[C@]2(C)C(=O)CC[C@@H]12 [IIa.2]"
number = "1.03E−5"

[[record]]
compound = "C[C@]12CCc3nc(N)sc3C1=CC[C@@H]1[C@@H]2CC[C@]2(C)C(=NNC(N)=O)CC[C@@H]12 [IVb.1]"
number = "3.17E−6"


query: Retrieve TGI on 60 different human tumor cell lines; query C[C@]12CC[C@H]3[C@@H](CC=C4c5sc(Nc6ccccc6)nc5CC[C@@]43C)[C@@H]1CC[C@@H]2O [IIIa.10]
result: 3.38E−6
